tgt: Single-strand selective monofunctional uracil DNA glycosylase (Homo sapiens)
Sequence (whole entry): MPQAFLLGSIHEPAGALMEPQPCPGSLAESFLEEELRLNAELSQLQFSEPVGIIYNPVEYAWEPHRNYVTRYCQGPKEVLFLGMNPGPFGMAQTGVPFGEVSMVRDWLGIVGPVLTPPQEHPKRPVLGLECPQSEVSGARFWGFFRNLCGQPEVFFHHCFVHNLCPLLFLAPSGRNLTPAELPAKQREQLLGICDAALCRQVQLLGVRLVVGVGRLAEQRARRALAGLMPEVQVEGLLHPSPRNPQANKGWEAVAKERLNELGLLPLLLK
protocol conditions: Compound Concentration 10.0 uM, Hit No
Description: Inhibition of SMUG1 by quantifying inhibition of SMUG1-mediated cleavage and dissociation of quenched duplex DNA oligonucleotides, measured as fluorescence at 594 nm. To generate a functional strand incision and increase turn-over this assay is coupled to APE1.
Label rule, in plain words: inhibition of 10% and up is true, under 10% is false.

Illustrative cases are given below, each with its answer.
State whether the measured inhibition reaches 10%, counting equality as reaching it, for S=C(NCCCc1c[nH]cn1)NCCCN(Cc1ccc(Cl)c(Cl)c1)c1ccc(Br)cn1
false

Also COc1cccc2c1c(NS(=O)(=O)c1ccc(Cl)s1)nn2Cc1cccc(CNC(=O)C(C)(C)O)c1 ?
false

Also COc1cc(N(C)c2ccnc3ccc(C(F)(F)F)cc23)cc(OC)c1OC ?
true

Also NC(N)=Nc1nc(CSCC/C(N)=N/S(N)(=O)=O)cs1 ?
false

***
State whether the measured inhibition reaches 10%, counting equality as reaching it, for CC(=O)Nc1c(F)cc(C(=O)N[C@H]2CC[C@H](O)CC2)cc1O[C@@H](C)c1ccccc1
true

Also CCCCCCCCCCCCC/C=C/[C@@H](O)[C@@H](N)COP(=O)([O-])OCC[N+](C)(C)C ?
false

Also CC(=O)Nc1c(C(C)=O)c(=O)n(C)c2nc(-c3ccc(Cl)cc3Cl)c(-c3ccc(Cl)cc3)cc12 ?
false

Also CN(C)[C@@H]1CCN(c2cc(-c3ccccc3)nc3ccnn23)C1 ?
true

Also Cc1cccc(-c2cnc3occ(-c4ccc(C(=O)O)c(C5CCCC5)c4)c3c2)c1 ?
true

* * *

tgt: Endonuclease 8-like 2 (Homo sapiens) (UniProt Q969S2)
Sequence (whole entry): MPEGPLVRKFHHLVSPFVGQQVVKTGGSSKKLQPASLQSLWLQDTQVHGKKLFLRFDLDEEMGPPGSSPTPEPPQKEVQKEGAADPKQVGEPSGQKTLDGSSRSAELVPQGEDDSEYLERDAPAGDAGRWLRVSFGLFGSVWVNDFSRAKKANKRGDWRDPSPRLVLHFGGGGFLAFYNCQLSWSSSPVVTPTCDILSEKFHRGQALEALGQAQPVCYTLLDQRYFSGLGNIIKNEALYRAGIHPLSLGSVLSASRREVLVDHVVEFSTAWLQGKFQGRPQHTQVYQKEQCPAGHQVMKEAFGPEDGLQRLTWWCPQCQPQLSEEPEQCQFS
protocol conditions: Compound Concentration 1.0 uM, Hit No
Description: Inhibition of NEIL2 by quantifying inhibition of NEIL2-mediated cleavage and dissociation of quenched duplex DNA oligonucleotides, measured as fluorescence at 594 nm.
Reported inhibition values follow for various compounds
Enter your answer as a number in %; do not include the unit.

Can you look up the measured inhibition of O=C(Nc1ccc(Oc2ccc(F)cc2)cc1)N1CCc2ncccc2[C@H]1c1ccc(F)cc1 for me?
-5.34

Also CCOC(=O)c1c(/C(C#N)=C\N)c2ccc(Cl)c(Cl)c2n1C ?
-5.96

Also O[C@]1(C(F)(F)F)CCCC[C@H]1Nc1ccc(F)cc1 ?
6.91

***
Can you look up the measured inhibition of C[C@@H]1CCN(C(=O)CC#N)C[C@@H]1N(C)c1ncnc2[nH]ccc12 for me?
-1.11

Also CN(C)C(=O)/C(C#N)=C/c1ccc(-c2nc3cnc4[nH]ccc4c3n2C2CCCCC2)o1 ?
-0.572

Also CN1C(=O)[C@@H](N2CCc3cn(Cc4ccccc4)nc3C2=O)COc2ccccc21 ?
-5.67

Also O=C(NOC[C@H](O)CO)c1ccc(F)c(F)c1Nc1ccc(I)cc1F ?
-6.76

Also CS(=O)(=O)c1cc(C2(NC(=O)c3cncc4c3cnn4-c3ccc(F)cc3)CC2)ccn1 ?
1.04

Also Cc1nc(Cc2cccc(C(F)(F)F)c2)sc1-c1ccc(C(N)=O)nc1 ?
-3.29

* * *

Reported inhibition values follow for various compounds
tgt: G/T mismatch-specific thymine DNA glycosylase (Homo sapiens)
protocol conditions: Compound Concentration 10.0 uM, Hit No
Description: Inhibition of TDG by quantifying inhibition of TDG-mediated cleavage and dissociation of quenched duplex DNA oligonucleotides, measured as fluorescence at 594 nm. To generate a functional strand incision and increase turn-over this assay is coupled to APE1.
Answer format: number, then unit.

Some solved cases for reference:
Can you look up the measured inhibition of O=C(Nc1cccnc1)c1cc(-c2ccnc(F)c2)ccc1OCc1ccccc1 for me?
52.5%

Also O=c1ccn([C@@H]2O[C@H](COP(=O)(O)OP(=O)(O)OP(=O)(O)O)[C@@H](O)[C@H]2O)c(=O)[nH]1 ?
-4.53%

Also O=C(Nc1ccc(Cl)nc1)c1ccc(Cl)cc1 ?
21.2%

***
Can you look up the measured inhibition of COC[C@@H](c1ccc(C(F)(F)F)cc1)N1CCN(C2(C)CCN(C(=O)c3c(C)ncnc3C)CC2)C[C@@H]1C for me?
-1.76%

Also CC(C)Oc1ccccc1C(=O)Nc1ccccc1C(=O)Nc1cccc(S(=O)(=O)C(F)(F)F)c1 ?
4.21%

Also CCCCCNC(=O)NS(=O)(=O)c1cc([N+](=O)[O-])ccc1NC1CCCCC1 ?
23.6%

Also Clc1ccc2nsnc2c1NC1=NCCN1 ?
12%

Also CN(C)CCCc1cc(C(=O)Nc2ccc(-c3ccncc3)cc2)ccc1O ?
22.9%

Also CCC(=N\O)/C(C)=C/c1ccc(F)c(C)c1 ?
41.4%

Also Cc1cccc(S(=O)(=O)N(C)[C@H](C)CCN2CCC(C)CC2)c1 ?
1.58%

Also CCCCCN1C(=O)C2(COc3cc4c(cc32)OCO4)c2ccccc21 (centres undefined) ?
18.1%

Also NC1(c2ccc(-c3nc4ccn5c(=O)[nH]nc5c4cc3-c3ccccc3)cc2)CCC1 ?
71.2%

Also CN(C)CC#Cc1ccc(OCCCc2sc(N3CCc4cccc(C(=O)Nc5nc6ccccc6s5)c4C3)nc2C(=O)O)c(F)c1 ?
40.4%

Also CC(=O)Nc1ccc(-c2cc(-c3ccccc3)nc3cc(C(=O)NCCCn4ccnc4)nn23)cc1 ?
38.6%

Also CN1CC[C@@]23CCCC[C@@H]2[C@@H]1Cc1ccc(O)cc13 ?
-3.74%

* * *

tgt: G/T mismatch-specific thymine DNA glycosylase (Homo sapiens)
protocol conditions: Compound Concentration 10.0 uM, Hit No
Reported inhibition values follow for various compounds
Enter your answer as a number in %; do not include the unit.

Some solved cases for reference:
Can you look up the measured inhibition of Fc1ccc(-c2c3cccc(C(F)(F)F)c3nn2Cc2ccc(F)cc2Cl)cc1 for me?
53.1

Also COC(=O)[C@H](CCCN=C(N)N)NC(=O)CCCc1c(-c2ccccc2)[nH]c2c(F)cc(F)cc12 ?
16.3

Also CCC(=O)OCC(=O)[C@@]1(OC(=O)CC)[C@@H](C)C[C@H]2[C@@H]3CCC4=CC(=O)C=C[C@]4(C)[C@@]3(Cl)[C@@H](O)C[C@@]21C ?
-4.42

Also C[C@@H]1CN(c2cc(-c3nn(C)c4ccc(OC5(C)CC5)cc34)ncn2)C[C@H](C)O1 ?
63

Also Cc1cc(C)cc(-c2cnc3cc(Cl)c(-c4cccc(O)c4)cc3c2OCCCN)c1 ?
24.4

Also N/C(=N\C(=O)c1nc(Cl)c(N)nc1N)NCc1ccccc1 ?
32.7

Also COc1ccc(CN(CCN(C)C)c2ccccn2)cc1 ?
2.93

Also c1ccc(N2CCN(Cc3nc4ccccc4[nH]3)CC2)nc1 ?
29.5

Query compound follows.
Can you look up the measured inhibition of O=C(O)CC1CCC2(CC1)CCN(c1cc(OC(F)(F)F)ccc1Cl)CC2 for me?
32.9

* * *

tgt: N-glycosylase/DNA lyase (Homo sapiens) (UniProt O15527)
Sequence (O15527 whole entry): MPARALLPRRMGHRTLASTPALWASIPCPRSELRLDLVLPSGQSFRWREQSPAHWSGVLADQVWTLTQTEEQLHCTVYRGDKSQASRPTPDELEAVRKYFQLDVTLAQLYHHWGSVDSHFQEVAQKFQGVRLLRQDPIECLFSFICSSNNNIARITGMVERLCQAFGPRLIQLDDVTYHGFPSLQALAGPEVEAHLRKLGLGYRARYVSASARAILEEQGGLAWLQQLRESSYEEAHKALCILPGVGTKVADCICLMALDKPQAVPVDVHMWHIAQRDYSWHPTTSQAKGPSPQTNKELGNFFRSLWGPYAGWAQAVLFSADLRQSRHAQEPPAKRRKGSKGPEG
protocol conditions: Compound Concentration 10.0 uM, Hit No
Description: Inhibition of OGG1 by quantifying inhibition of OGG1-mediated cleavage and dissociation of quenched duplex DNA oligonucleotides, measured as fluorescence at 594 nm. To generate a functional strand incision and increase turn-over this assay is coupled to APE1.
property: inhibition (%)
Enter your answer as a number in %; do not include the unit.

Some solved cases for reference:
Can you look up the measured inhibition of COc1ccccc1S(=O)(=O)Nc1ccc(C)cc1Oc1ccc2c(N)nccc2c1 for me?
-5.28

Also COc1ccc(CCCN2CCC(COC(c3ccccc3)c3ccccc3)CC2)cc1 ?
-0.567

Also c1ccc(N2CCN(Cc3nc4ccccc4[nH]3)CC2)nc1 ?
-5.49

***
Can you look up the measured inhibition of CC1=C(C#N)C(c2ccc3[nH]nc(C)c3c2)C(C#N)=C(C)N1 for me?
4.91

* * *

Reported inhibition values follow for various compounds
tgt: G/T mismatch-specific thymine DNA glycosylase (Homo sapiens)
protocol conditions: Compound Concentration 1.0 uM, Hit No
Answer format: number, then unit.

Some solved cases for reference:
Can you look up the measured inhibition of COC[C@H](NC(=O)c1ccn(S(C)(=O)=O)c1)C(=O)Nc1nc(-c2cccc(-c3ccn(C)n3)c2)cs1 for me?
48.2%

Also Cc1cc(F)c(C(=O)Nc2cccc(-c3nncn3C(C)C)n2)cc1-n1cnc(C2CC2)c1 ?
44.4%

Also CCS(=O)(=O)c1cc2cc(C[C@@](O)(CC(C)(C)c3ccc(F)cc3C(N)=O)C(F)(F)F)[nH]c2cn1 ?
28.1%

Query compound follows.
Can you look up the measured inhibition of CCCCN(CCCC)C(=O)CN1C[C@H](c2cc(OC)c3c(c2)OCO3)[C@@H](C(=O)O)[C@@H]1CC(C)(C)CCC for me?
54.3%
